Measured values drawn from paper doi:10.1101/2024.08.19.608619 for this set.

# Tested on: UniProt P0DTD1
# Protocol notes: biochemical
# Assay type: biochemical
# Assay context: SARS-CoV-2 nsp3 macrodomain TR-FRET single point; concentration 99.5 uM
Value type: perc_inhibition_mean (%)

1) Cc1ccc2ccccc2c1-c1ncnc2[nH]ccc12 = -9.099
2) O=C(O)c1ccc2c(c1)ncn2-c1ccc(CNC(=O)c2ncnc3[nH]ccc23)cc1 = -4.649
3) Cc1ccc(C(=O)N2CCC(c3ccn4ncc(C(=O)N5CCCCC5)c4c3)CC2)c(=O)[nH]1 = 3.662
4) O=C(N[C@@H](C(=O)O)[C@@H](O)Cc1ccccc1)c1ncnc2[nH]ccc12 = 12.267
5) CC(C)c1nc([C@@H](C)Nc2ncnc3nc[nH]c23)cs1 = 3.067
6) c1nc(N[C@@H]2CCCc3c2cnn3C2CCCC2)c2cc[nH]c2n1 = 14.273
7) Oc1ccccc1CNc1ncnc2cccnc12 = -0.535
8) Cn1nc(C(=O)N2CCC(c3ccn4ncc(C(=O)N5CCCCC5)c4c3)CC2)cc1C(=O)O = 59.743
9) CN1CCC[C@H](NC(=O)c2cnn3ccc(C4CCN(C(=O)c5ccccc5)CC4)cc23)C1 = -5.439

* * *

solubility_mean values for the molecules below.
# Protocol notes: In vitro kinetic solubility
# Assay context: In vitro kinetic solubility, ph 7.4
Value type: solubility_mean (µM)

1. CCNC(=O)c1cc2c(N[C@H](c3ccc4c(c3)S(=O)(=O)CCC4)C(C)C)ncnc2[nH]1 (racemic) [ASAP-0008711] = 336
2. CNC(=O)c1cc2c(N[C@@H](c3ccc4c(c3)S(=O)(=O)CCC4)C(C)C)ncnc2[nH]1 [ASAP-0008685] = 369
3. CC(C)[C@@H](Nc1ncnc2[nH]cc(C(=O)NC3CC3)c12)c1ccc2c(c1)S(=O)(=O)CCC2 = 216
4. CNC(=O)c1c[nH]c2ncnc(N[C@H](c3ccc4c(c3)S(=O)(=O)CCC4)C(C)C)c12 (racemic) [ASAP-0008641] = 390
5. Cc1nn(C)cc1-c1cc2c(N[C@H](c3ccc4c(c3)S(=O)(=O)CCC4)C(C)C)ncnc2[nH]1 (single isomer, unassigned) = 63
6. CC(C)[C@H](Nc1ncnc2[nH]c(-c3cnn(C)c3C#N)cc12)c1ccc2c(c1)NC(=O)CO2 (single isomer, unassigned) [ASAP-0013255] = 26

* * *

# Protocol notes: In vitro kinetic solubility
# Assay context: In vitro kinetic solubility, ph 7.4
Items are presented alongside their recorded solubility_mean.
Value type: solubility_mean (µM)

1. CC(C)[C@@H](Nc1ncnc2[nH]c(-c3cnn(CC(=O)N(C)C)c3)cc12)c1ccc2c(c1)S(=O)(=O)CCC2 (racemic) [ASAP-0008668] = 38
2. CC(C)[C@H](Nc1ncnc2[nH]c(-c3cnn(C)c3C#N)cc12)c1ccc2c(c1)OCCO2 = 15
3. CCNC(=O)c1cc2c(N[C@H](c3ccc4c(c3)OCCO4)C(C)C)ncnc2[nH]1 (single isomer, unassigned) [ASAP-0013827] = 13
4. O=C(Nc1ccccc1)Nc1ccc(C(=O)NC2c3cccc(O)c3CC2C(=O)O)cc1 (stereo not shown) = 319

* * *

# Protocol notes: Protein binding
# Type: in vitro ADME
# Assay context: In vitro mouse plasma protein binding
Value type: fu

1. CC(C)C(Nc1ncnc2[nH]c(C(=O)NC3CCN(C)C3)cc12)c1ccc2c(c1)S(=O)(=O)CCC2 (centres unmarked) = 0.184
2. C[C@H](C(=O)O)[C@@H](NC(=O)c1ncnc2[nH]ccc12)c1ccc(Br)cc1 = 0.111
3. COc1ccc([C@H](Cc2nnn[nH]2)NC(=O)c2ncnc3[nH]ccc23)cc1 = 0.306
4. CC(C)[C@H](Nc1ncnc2[nH]ccc12)c1ccc2c(c1)S(=O)(=O)CCC2 = 0.124
5. CC(C)[C@@H](Nc1ncnc2[nH]c(-c3cnn(C)c3C#N)cc12)c1ccc2c(n1)OCCO2 = 0.027
6. CNCc1cc(-c2cc3c(N[C@@H](c4ccc5c(c4)S(=O)(=O)CCC5)C(C)C)ncnc3[nH]2)co1 = 0.031
7. CC(C)[C@H](Nc1ncnc2[nH]c(-c3cnn(C)c3C#N)cc12)c1ccc2c(n1)OCCO2 = 0.026
8. Cn1ncc(-c2cc3c(N[C@@H](c4ccc5c(n4)OCCO5)C(C)(C)C)ncnc3[nH]2)c1C#N = 0.011
